Provenance of the data: patent US20250215030A1

Documented IC50 across a set of molecules
# system_under_test: pSTAT3 (pY705-STAT3) (Homo sapiens, UniProt P40763)
# Construct: host or cells: cryopreserved PBMC
# Sequence (P40763 whole entry): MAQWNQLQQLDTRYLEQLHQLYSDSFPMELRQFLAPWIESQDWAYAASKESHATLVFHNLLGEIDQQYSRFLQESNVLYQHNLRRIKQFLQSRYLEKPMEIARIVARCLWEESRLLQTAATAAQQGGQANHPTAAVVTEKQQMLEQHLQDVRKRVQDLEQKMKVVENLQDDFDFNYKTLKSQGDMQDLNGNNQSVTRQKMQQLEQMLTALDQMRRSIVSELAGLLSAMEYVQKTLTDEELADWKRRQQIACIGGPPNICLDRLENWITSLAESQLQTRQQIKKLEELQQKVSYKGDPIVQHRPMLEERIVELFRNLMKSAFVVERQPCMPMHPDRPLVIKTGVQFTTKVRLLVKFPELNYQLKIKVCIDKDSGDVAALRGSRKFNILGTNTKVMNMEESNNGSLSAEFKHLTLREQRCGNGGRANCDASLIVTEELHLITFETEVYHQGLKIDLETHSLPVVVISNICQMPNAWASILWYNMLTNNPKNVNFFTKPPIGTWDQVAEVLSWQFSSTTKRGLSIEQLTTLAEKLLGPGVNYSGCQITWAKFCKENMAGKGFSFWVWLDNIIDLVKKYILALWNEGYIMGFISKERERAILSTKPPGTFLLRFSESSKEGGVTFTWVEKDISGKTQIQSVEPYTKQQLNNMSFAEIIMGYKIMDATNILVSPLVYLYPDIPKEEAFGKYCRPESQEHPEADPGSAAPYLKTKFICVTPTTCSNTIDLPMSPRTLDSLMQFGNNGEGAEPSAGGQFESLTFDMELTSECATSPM
# protocol: MSD-pSTAT-PBMC Assay (pSTAT3, IL-6 stimulated)
# Type: cell-based

molecule: CCCOC(=O)[C@H](C)NP(=O)(Oc1ccccc1)C(F)c1ccc2sc(C(=O)N[C@H]3C[C@H]4C[C@H]4C[C@H]4CC[C@@H](C(=O)N[C@H]5CN(C(C)=O)C[C@@H]5F)N4C3=O)cc2c1 (stereo partly drawn)
system_under_test: pSTAT3 (pY705-STAT3) (Homo sapiens, UniProt P40763)
IC50: 100 to 1000 nM

molecule: CCCOC(=O)[C@H](C)NP(=O)(Oc1ccccc1)C(F)c1ccc2sc(C(=O)N[C@H]3C[C@@H]4C[C@@H]4C[C@H]4CC[C@@H](C(=O)N5CC(N6CCS(=O)(=O)CC6)C5)N4C3=O)cc2c1 (stereo partly drawn)
system_under_test: pSTAT3 (pY705-STAT3) (Homo sapiens, UniProt P40763)
IC50: > 3000 nM

molecule: Cc1ccncc1C1CN(C(=O)[C@@H]2CC[C@@H]3C[C@H]4C[C@H]4C[C@H](NC(=O)c4cc5cc(C(F)P(=O)(N[C@@H](C)C(=O)OC(C)C)Oc6ccccc6)ccc5s4)C(=O)N32)C1 (stereo partly drawn)
system_under_test: pSTAT3 (pY705-STAT3) (Homo sapiens, UniProt P40763)
IC50: < 100 nM

molecule: CCCOC(=O)[C@@H](C)NP(=O)(Cc1ccc2sc(C(=O)N[C@H]3C[C@@H]4C[C@]4(C)C[C@H]4CC[C@@H](C(=O)N5CC(c6cccnc6)C5)N4C3=O)cc2c1)Oc1ccccc1 (stereo in doubt)
system_under_test: pSTAT3 (pY705-STAT3) (Homo sapiens, UniProt P40763)
IC50: < 100 nM

molecule: CCCOC(=O)[C@H](C)NP(=O)(Oc1ccccc1)[C@H](F)c1ccc2sc(C(=O)N[C@H]3C[C@@H]4C[C@@H]4C[C@H]4CC[C@@H](C(=O)N5CC(c6cnccc6N6CC[C@H]6COC)C5)N4C3=O)cc2c1 (stereo partly drawn)
system_under_test: pSTAT3 (pY705-STAT3) (Homo sapiens, UniProt P40763)
IC50: < 100 nM

molecule: CCCOC(=O)[C@H](C)N[P@](=O)(Oc1ccccc1)C(F)c1ccc2sc(C(=O)N[C@H]3C[C@@H]4C[C@@H]4C[C@H]4CC[C@@H](C(=O)N5CC(c6cnccc6N(C)C)C5)N4C3=O)cc2c1 (stereo partly drawn)
system_under_test: pSTAT3 (pY705-STAT3) (Homo sapiens, UniProt P40763)
IC50: < 100 nM

molecule: CCCOC(=O)[C@H](C)NP(=O)(Oc1ccccc1)C(F)c1ccc2sc(C(=O)N[C@H]3C[C@H]4C[C@H]4C[C@H]4CC[C@@H](C(=O)N5CC(c6cnccc6N6CCOCC6)C5)N4C3=O)cc2c1 (stereo in doubt)
system_under_test: pSTAT3 (pY705-STAT3) (Homo sapiens, UniProt P40763)
IC50: < 100 nM

molecule: CCCOC(=O)[C@H](C)NP(=O)(Cc1ccc2sc(C(=O)N[C@H]3C[C@H]4C[C@H]4CC4CC[C@@H](C(=O)N[C@H]5CN(C(C)=O)C[C@@H]5F)N4C3=O)cc2c1)Oc1ccccc1 (stereo partly drawn)
system_under_test: pSTAT3 (pY705-STAT3) (Homo sapiens, UniProt P40763)
IC50: 1000 to 3000 nM

molecule: CCCOC(=O)[C@@H](C)NP(=O)(Cc1ccc2sc(C(=O)N[C@H]3C[C@H]4C[C@H]4C[C@H]4CC[C@@H](C(=O)N5CC(c6cnccc6C)C5)N4C3=O)cc2c1)Oc1ccccc1 (stereo in doubt)
system_under_test: pSTAT3 (pY705-STAT3) (Homo sapiens, UniProt P40763)
IC50: < 100 nM
